Some binders, each annotated with its measured Kd.
# Measurement target: T1, human CD112R antigen protein huCD112R-His (Acro Biosysterm, PVG-H52H4) (human, UniProt Q6DKI7 41-171)
# T1 construct: purchased; also called human antigen protein; not shown: His tag
# T1 sequence (looked up): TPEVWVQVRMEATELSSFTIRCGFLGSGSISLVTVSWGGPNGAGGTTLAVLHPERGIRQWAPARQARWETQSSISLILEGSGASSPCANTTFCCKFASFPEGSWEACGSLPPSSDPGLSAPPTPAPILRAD
# Test summary: SPR (Biacore X100), antibody captured on Protein A chip, huCD112R-His as analyte, 1:1 Langmuir
Give just the number in nM; leave the unit off.

// known answers, use as guide
Binder	Kd [nM]
C154 (antibody, human IgG1, kappa, V domains shown) VH: EVQLVESGGGLVKPGGSLRLSCAASGFTFSDYYMYWVRQAPGKGLEWVSTISDAGGYTYYPDSVKGRFTISRDNAKNSLYLQMNSLRAEDTAVYYCAREDLWGQGTLVTVSS VL: DIQMTQSPSSLSASVGDRVTITCRASQDIGYSLNWFQQKPGKAPKRLIYATSRLDSGVPKRFSGSGSGTDFTLTISSLQPEDFATYYCLQYASFPYTFGGGTKLEIKR	0.724
C20 (antibody, human IgG1, kappa, V domains shown) VH: EVQLVESGGGLVKPGGSLKLSCAASGFTFSDSYMCWVRQTPEKRLEWVATISDAGGYTYYPDSVKGRFTISRDNDRNNLYLQMSGLKSEDTAVYYCGREDLWGQGTSVTVSS VL: DIQMTQSPSSLSASLGERVSLTCRASQDIGRSLNWLQQEPDGTIKRLIYATSRLDSGVPKRFSGSRSGSDYSLTISSLESEDFVDYYCLQYASSPYTFGGGTKLEIKR	0.114

Provide only the value of recorded Kd for C67 (antibody, human IgG1, kappa, V domains shown) VH: EAQLQQSGPELVKPGASVKISCKASGYTFTDYYMNWVKQSHGKSLDWIGDINPDNGGSTYNQKFKGKATLTVDKSSSTAYMELRSLTSEDSAVYYCSASGPPYVLLDYWGQGTSVIVSS VL: DIQMTQSPASLSASVGETVTITCQTSENIYSYLAWYQQKQGKSPQLLVYNTQTLAEGVPSRFSGSRSGAQFSLKINSLQPEDFGSYYCQHHYGVPLTFGAGTKLELKR
0.02
